assay-conditions: 303.15 K; 101.33 kPa; Liquid; Sing-around technique in a fixed-path interferometer
Each entry below lists one item and its recorded speed of sound value.

molecule-smiles	unit-descriptor	speed of sound
CCC(C)=O	m/s	1170.8
CCN(CC)CC	m/s	1090.7
CCCCNCCCC	m/s	1222.5
CCCNCCC	m/s	1167.1

Entry source: the NIST ThermoML archive (doi:10.1016/j.tca.2010.09.004)
